// data source = ChEMBL document CHEMBL1128174

Would you mind telling me the reported IC50 of each entry?
target: D(2) dopamine receptor (Rattus norvegicus, UniProt P61169); experiment: Binding affinity against dopamine receptor D2
Sequence (P61169 whole entry): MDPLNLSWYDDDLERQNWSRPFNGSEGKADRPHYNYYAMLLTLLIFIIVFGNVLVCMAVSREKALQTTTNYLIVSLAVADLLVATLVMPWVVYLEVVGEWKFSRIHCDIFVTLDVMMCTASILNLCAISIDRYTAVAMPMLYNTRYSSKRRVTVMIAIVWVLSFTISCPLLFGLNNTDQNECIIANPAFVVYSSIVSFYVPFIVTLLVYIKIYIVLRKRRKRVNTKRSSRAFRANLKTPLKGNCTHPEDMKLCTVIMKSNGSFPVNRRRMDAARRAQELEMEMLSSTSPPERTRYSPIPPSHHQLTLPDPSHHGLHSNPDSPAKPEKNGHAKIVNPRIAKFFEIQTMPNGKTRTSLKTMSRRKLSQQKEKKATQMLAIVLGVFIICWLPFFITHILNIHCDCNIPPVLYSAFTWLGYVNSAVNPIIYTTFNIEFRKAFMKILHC
Please respond with the number in nM and leave the unit unwritten.

Quick check: IC50 of OCCN1CCN(C2CC(c3ccc(F)cc3)c3ccc(C(F)(F)F)cc32)CC1 (stereo not given) ?
10

Quick check: IC50 of CC(C)c1ccc2c(c1)C(N1CCN(CCO)CC1)CC2c1ccc(F)cc1 (stereo not given) ?
14

Quick check: IC50 of CN1CCN(C2CC(c3ccccc3)c3ccc(Cl)cc32)CC1(C)C (single isomer, unassigned; (-)) ?
9.5

Quick check: IC50 of CSc1ccc2c(c1)C(N1CCN(CCO)CC1)CC2c1ccc(F)cc1 (stereo not given) ?
13

Quick check: IC50 of CC1(C)CN(C2CC(c3ccsc3)c3ccc(Cl)cc32)CCN1 (single isomer, unassigned; (-)) ?
7.1
